# Test system: Homo sapiens
# assayMethodText: AUC in human at 150 mg, po administered as single dose
# Format: ADME, organism-based, Plasma
# measurementContext: in vivo
measuredProperty: AUC (ng·h/mL)
Answers are plain numbers, in ng·h/mL.

Identify measured AUC corresponding to CC[C@H]1OC(=O)[C@H](C)[C@@H](O[C@H]2C[C@@](C)(OC)[C@@H](O)[C@H](C)O2)[C@H](C)[C@@H](O[C@@H]2O[C@H](C)C[C@H](N(C)C)[C@H]2O)[C@](C)(O)C[C@@H](C)/C(=N\OCOCCOC)[C@H](C)[C@@H](O)[C@]1(C)O
81000

====

# assayMethodText: Cmax in human at 500 mg, po administered as single dose
# Type: ADME, organism-based
# Set-up: dose 500 mg, route oral
# measurementContext: in vivo
measuredProperty: Cmax (ng/mL)
One number for each entry, in ng/mL.

compound	unitText	reported
CC[C@H]1OC(=O)[C@H](C)[C@@H](O[C@H]2C[C@](C)(OC)[C@H](O)[C@@H](C)O2)[C@H](C)[C@@H](O[C@@H]2O[C@@H](C)C[C@@H](N(C)C)[C@@H]2O)[C@](C)(O)C[C@@H](C)C(=O)[C@H](C)[C@@H](O)[C@]1(C)O [ERYTHROMYCIN A DIHYDRATE]	ng/mL	1900

Let us examine a further case.
Identify measured Cmax corresponding to CC[C@H]1OC(=O)[C@H](C)[C@@H](O[C@H]2C[C@@](C)(OC)[C@@H](O)[C@H](C)O2)[C@H](C)[C@@H](O[C@@H]2O[C@H](C)C[C@H](N(C)C)[C@H]2O)[C@](C)(OC)C[C@@H](C)C(=O)[C@H](C)[C@@H](O)[C@]1(C)O [CLARITHROMYCIN]
2410

====

# assayMethodText: Tmax in human at 150 mg, po administered as single dose
# Format: ADME, organism-based
# measurementContext: in vivo
measuredProperty: Tmax (h)
Answers are plain numbers, in h.

Identify measured Tmax corresponding to CC[C@H]1OC(=O)[C@H](C)[C@@H](O[C@H]2C[C@@](C)(OC)[C@@H](O)[C@H](C)O2)[C@H](C)[C@@H](O[C@@H]2O[C@H](C)C[C@H](N(C)C)[C@H]2O)[C@](C)(O)C[C@@H](C)/C(=N\OCOCCOC)[C@H](C)[C@@H](O)[C@]1(C)O [ROXITHROMYCIN]
2.2
